Here the recorded median log2 fold change is given for each entry.
- system: UCHL1, P09936
- Sequence (P09936 whole entry, looked up, the tested form may be a part): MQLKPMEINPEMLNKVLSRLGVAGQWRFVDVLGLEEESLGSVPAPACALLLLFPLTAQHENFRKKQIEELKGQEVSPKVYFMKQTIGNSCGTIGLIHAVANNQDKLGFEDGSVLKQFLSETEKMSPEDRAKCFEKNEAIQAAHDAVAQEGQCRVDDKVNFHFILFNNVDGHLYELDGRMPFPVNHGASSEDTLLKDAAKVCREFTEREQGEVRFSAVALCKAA
- assay procedure: median log2 fold change of GCK-ALFA target abundance (FLAG IP / Myc IP barcode read proportion) (log2 ratio); each designed protein is fused to an ALFA-tag nanobody in HEK293 cells to bring the named protein to FLAG-tagged glucokinase (GCK); Myc marks an untargeted standard; higher = target protein stabilised (more abundant)
- condition description: target protein: 3xFLAG-MCP-GCK-ALFA reporter; HEK293 landing pad (RPLP)
parameter: median log2 fold change

binder	recorded number
uchl1_122_7437 (protein) MITIEVLVSSSISEKVLEIIKKFASKLLKNPKFKIEQVSPGTLKITITGELKDVSEEEIREIYNEALEELGKLQDITPNEKVSANTALRKIARDVARARR	-0.0419
uchl1_2_7573 (protein) KTVFVGIKVTLEAYDEKTGKTYRSTRTLIFTEEALEKAAEEVKELALNFKDAVGVPVTVNVHIVSTDEEVLERLKKLLEEMAKELAKEGITVNISGEVVK	-0.366
uchl1_143_7459 (protein) GSPEEEVEVIEVTIEPTDTPEQIREKITKALKEAVELEKDTRIVITVPPDPNLKLMVNTVARRELKKIAQEYPEKTKTITVEARDAETGKVDLLAEYVKE	0.347
uchl1_199_7513 (protein) MTRAESIARQVGGRLLSGIGSPEVLAARAARLLRLVLERLPDLPDEELLEAVRLLLRAIAAERSPEAFDAVAAALTAVLQEERGIGERMAAIAAEVRAEA	-0.209
uchl1_89_7586 (protein) EEERLAAARARLRRILAATRAELERLIASLGVRDPALEAALAAFFAHARRAIEDPATAEEALAAAEAAARELLALAPPEKRADFRLATGRLLNALLGYRA	0.158
uchl1_89_7575 (protein) EAARREAARARLRRILAATEARVAALLARLGEVPPELAAARDAFFAAARAAIDDPATAAAALAAAEAAARRLVELAPPEYRASFRLATGRLLNALRGWAA	0.127
uchl1_143_7456 (protein) PPAPVPVHRVTIEVTREDTPEEIRARLEAAVAEAAAAGAALEITVVVTSDPNVRVMANTVARRVAREAARRYRDTLPSLRIVLRDRETGKEQLIAEADFR	0.0928
uchl1_2_7549 (protein) EPQFVGVLVTVTSTNPETGKVYKSRRNFIGTADAIPALFKEVLEYVLTFKEANGGKTKVKLEIVVSTKEVAEKAKKEAEKLKKELAKEGIEAEVKITVVE	-0.1
uchl1_143_7466 (protein) GPAPVPVLRVERTWTADTTLEEVLALLREAAERAIKEGKDLEVIFTVSPDPNHRLRANTLARRAGKEITQELGKRIRRLRVLLRDAETGKVDLIYEHDGR	0.0958
uchl1_2_7542 (protein) KPKFIGLKVTLTSYDEKTGKTYKATRTLIGTESGIEAMAKEVGELVRTFYDATGVPVKVDVTIVSSDEEVAKKLEEALRKMEEELKKEGVPVELNIKKEV	-0.0683
uchl1_199_7515 (protein) MTRAESIAAQLGGRLLSGIYSPEVLAARAAALWADVLRRLSDLPDEELLEAFRILLEALAAAVDEASARAAAEAIVAVLAEERGIGERARAIADEVLAAR	0.16
uchl1_122_7449 (protein) TETVEVVGRRADVEAIAATIRAVFASHGLTVDTTITELSPTTARLTVTVTLPPISDAQVAALEAALEAAMAALVEREGISRAFAGIATTRVIRAVRRAAA	0.184
uchl1_143_7457 (protein) GPEVVPVRRVEITVTRADTPEEIEARLLAAVREAAAAGEALLITITVEGDANLRVMVGNVAKRVARRAAREYGDTLPSLRIIARDAETGKEQLLAEVDNR	0.225
uchl1_122_7444 (protein) MLTVEVLVSSSLSEEVLEILEEYASKLLEDLEVEKKKVSPGTILITFTGELKDVSEEEIREIREEALERLSKLQNLTPNEKVSFGNALRRIERQVMQAKK	0.0563
uchl1_2_7545 (protein) KTKFVGVLVTLRSYDPETGREYVSRRTLIGTEEAVEAMAEEIAELIRRFHDRTGVPVDVDVTIYSSSKEVAEELKKKLEEEVKKLKAEGIDVTLTVTLKV	0.0138
uchl1_89_7588 (protein) EEERRRAARERLERVLAATRARLEALLARLGEPDPALVAALEALFAAARRALEDPATAAEALAAAEAAARRLVELAPPEVRASVRLAVGRLVNRLRGYVA	-0.164
uchl1_143_7485 (protein) EVRVIELTPEQVAAILSASPEAALATLEAIFEAAVALGVDTRVVLPAPADANDRLRLNTLVRRAARRVAKRRADEIDAVVISNERDPDRPARLVVTITVK	-0.394

Reference for the values: the supplement of paper PMC12632987
